Tested on: 379773-124-R-J2-PDC complex spheroids, viability % test/control;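 note: compound exposure lasted seven days before the viability readout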
Test: Anticancer human tumor 379773-124-R-J2-PDC patient-derived endometrial carcinoma cell line growth inhibition [CLK]; active = viability on the fitted dose curve at most 10% of control; inactive = the rest
Conditions: second compound 0.0316 µM; first compound 1 µM
Your reply should match one of these outcome classes. active, inactive

COMPOUND: C#Cc1c(F)ccc2cc(O)cc(-c3ncc4c(N5CC6CCC(C5)N6)nc(OCC56CCCN5CC(F)C6)nc4c3F)c12 (stereo not drawn) + CNC(=O)c1ccc(Nc2nc(OC3CCCC3)c3c(-c4ccc5nc(C)oc5c4)c[nH]c3n2)c(OC)c1
ASSAY SYSTEM: 379773-124-R-J2-PDC complex spheroids, viability % test/control;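 note: compound exposure lasted seven days before the viability readout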
LABEL CLASS: inactive

Recorded call for COc1c(OCCCN2CCOCC2)ccc2c3n(c(=NC(=O)c4cnc(N)nc4)nc12)CCN3 + CNC(=O)c1ccc(Nc2nc(OC3CCCC3)c3c(-c4ccc5nc(C)oc5c4)c[nH]c3n2)c(OC)c1 ?
active

Any idea what this test logged for O=C(c1cc(Cc2n[nH]c(=O)c3ccccc23)ccc1F)N1CCN(C(=O)C2CC2)CC1 + CNC(=O)c1ccc(Nc2nc(OC3CCCC3)c3c(-c4ccc5nc(C)oc5c4)c[nH]c3n2)c(OC)c1 ?
inactive
